Test system: Trypanosoma brucei rhodesiense
Assay: Antitrypanosomal activity against Trypanosoma brucei rhodesiense STIB900 infected NMRI mouse assessed as infection cure rate at 20 mg/kg, ip dosed for 4 days
Type: functional, organism-based
Design: dose 20 mg/kg
Calls of active or inactive are those of the source. The calls are words filed in the database; no cut-off is given here.
Endpoint Name: Activity

Completed entries (count: 4):
N=C(N)c1ccc(OCc2cc(COc3ccc(C(=N)N)cc3)c3ccccc3c2)cc1 | inactive
N=C(N)c1cccc(OCc2ccc(COc3cccc(C(=N)N)c3)cc2)c1 | inactive
N=C(N)c1ccc(OCCCCCOc2ccc(C(=N)N)cc2)cc1 | inactive
c1cc(COc2ccc(C3=NCCN3)cc2)ccc1COc1ccc(C2=NCCN2)cc1 | inactive

Activity reading for N=C(N)c1ccc(OCc2ccc(COc3ccc(C(=N)N)cc3)cc2)cc1 : inactive

Activity reading for c1cc(COc2ccc(C3=NCCN3)cc2)cc(COc2ccc(C3=NCCN3)cc2)c1 : inactive

Activity reading for N=C(N)c1ccc(OCc2ccccc2COc2ccc(C(=N)N)cc2)cc1 : inactive

The measured values listed here are drawn from ChEMBL document CHEMBL1153610.
